As shown below, each of these compounds has a reported melting point value.

>  <Compound>
Cc1ccnc(C)c1O

>  <melting point>
105 to 106 °C

$$$$
>  <Compound>
COC(=O)c1ccsc1COc1ccc(CCCCO)cc1

>  <melting point>
58 to 60 °C

$$$$
>  <Compound>
CC(C)(C)OC(=O)NC(Cc1ccccc1F)C(=O)N1CCSC1 (centres undefined)

>  <melting point>
133 to 134 °C

$$$$
>  <Compound>
COc1ccc(C(=O)Oc2ccc(C(=O)O)cc2C(=O)O)cc1C12CC3CC(CC(C3)C1)C2

>  <melting point>
172 to 173 °C

$$$$
>  <Compound>
CC=Cn1c(C(O)(c2ccc(Cl)cc2)c2ccc(Cl)cc2)nc(C)c1C

>  <melting point>
127 to 128 °C

$$$$
>  <Compound>
Cn1cc(-c2ccccc2)c(=O)c(-c2cccc(Cl)c2)c1

>  <melting point>
172 °C

$$$$
>  <Compound>
COc1cc(N)c(Cl)cc1C(=O)N[C@@H]1CCN(CCCC(=O)N2CCCC2)C[C@H]1O (relative stereo)

>  <melting point>
175 °C

$$$$
>  <Compound>
O=C(O)CCCC=Cc1nn(-c2ccccc2)c2c1CCC2

>  <melting point>
130 to 131 °C

$$$$
>  <Compound>
CCOC(=O)/C=C/c1ccc(OS(=O)(=O)C(F)(F)F)c(Cl)c1

>  <melting point>
59 to 61 °C

$$$$
>  <Compound>
O=C1CCC(c2nc(-c3ccccc3)c(-c3ccccc3)o2)N1 (centres undefined)

>  <melting point>
145 to 147 °C

$$$$
>  <Compound>
N#Cc1cccc(C2=Nc3ccc(C#Cc4ccc(F)cc4F)cc3NC(=O)C2)c1

>  <melting point>
240 to 246 °C

$$$$
>  <Compound>
CC(C)(C)C(=O)c1ccc(C(=O)O)cc1

>  <melting point>
160 to 162 °C

$$$$
>  <Compound>
COc1cn(-c2cc3c(cc2F)OC(F)(F)O3)nc(-c2ccnn2-c2ccccc2)c1=O

>  <melting point>
200 to 202 °C

$$$$
>  <Compound>
CC(C)(C)OC(=O)N1CCC(O)(CSC2=CC(=O)C(=O)c3ccccc32)CC1

>  <melting point>
156 to 157 °C

$$$$
>  <Compound>
O=C(O)Cc1ccc(C(=O)c2cccs2)cc1

>  <melting point>
126 to 129 °C

$$$$
>  <Compound>
O=C(Cc1cccc2ccccc12)Nc1cc([C@H]2C[C@@H](Oc3nc4ccccc4o3)C2)[nH]n1

>  <melting point>
142 °C

$$$$
>  <Compound>
O=C1NC(=S)SC1=Cc1cc(Cl)c2c(c1)N(CCc1ccc(C(F)(F)F)cc1)C(=O)CO2

>  <melting point>
275 to 277 °C

$$$$
>  <Compound>
N#Cc1ccc(N2CCC(=O)CC2)c2ccccc12

>  <melting point>
143 to 144 °C

$$$$
>  <Compound>
COc1cc(OC)c(C(=O)CC(=O)c2cc(OC)c(OC)cc2OC)cc1OC

>  <melting point>
173 to 176 °C

$$$$
>  <Compound>
CS(=O)(=O)c1ccc(-c2cc3c(cc2-c2ccc(F)cc2)OCO3)cc1

>  <melting point>
173 to 174 °C

$$$$
>  <Compound>
O=C1COC(c2cccc(Cl)c2)c2ncccc21 (centres undefined)

>  <melting point>
158 to 160 °C

$$$$
>  <Compound>
CC(C)Oc1ccc(CCCCC2SC(=O)NC2=O)cc1 (centres undefined)

>  <melting point>
72 to 73 °C

$$$$
>  <Compound>
NC1CCN(CC23CC(c4ccccc42)c2ccccc23)CC1

>  <melting point>
116 to 119 °C

$$$$
>  <Compound>
O=C1Nc2ccc(Cl)cc2C2(c3ccccc3)OCCN12 (centres undefined)

>  <melting point>
216 to 217 °C

$$$$
>  <Compound>
CC(C)(C)OC(=O)N1CCN(c2ccc(OCc3ccccc3)cn2)CC1

>  <melting point>
93 to 94 °C

$$$$
>  <Compound>
CCOC(=O)c1cnc2c3ccc(OC)cc3ccn2c1=O

>  <melting point>
212 °C

$$$$
>  <Compound>
O=C1C(=Cc2ccncc2)c2ccccc2N1c1ccccc1

>  <melting point>
160 to 162 °C

$$$$
>  <Compound>
COCCCOc1cc(CC(CC(NC(=O)OC(C)(C)C)C2CC(C)C(=O)O2)C(C)C)ccc1OC (centres undefined)

>  <melting point>
86 to 87 °C

$$$$
>  <Compound>
Cc1ccc2c(c1)C(=O)N(CC(=O)N1c3ccccc3N(Cc3ccccc3)C(=O)[C@H]3CCC[C@H]31)C2=O (relative stereo)

>  <melting point>
237 to 238 °C

$$$$
>  <Compound>
CC(=O)c1cn2c3c(cccc13)CCC2

>  <melting point>
106 to 108 °C

$$$$
>  <Compound>
Cn1c(=O)cc(-c2cccc(Cl)c2)c2cc(C(=O)c3ccc(I)cc3)ccc21

>  <melting point>
184 °C

$$$$
>  <Compound>
CN(C(=O)c1cc(-c2ccccc2)c2sccc2c1)c1ccccc1

>  <melting point>
127 °C

$$$$
>  <Compound>
Cc1noc(NS(=O)(=O)c2ccccc2-c2ccc(CC(C)C)cc2NC=O)c1C

>  <melting point>
87 to 95 °C

$$$$
>  <Compound>
Cc1ccccc1C(=O)Nc1ccc(C(=O)N2CCCC(NC(=O)CN(C)C)c3ccccc32)cc1 (centres undefined)

>  <melting point>
214 to 216 °C

$$$$
>  <Compound>
C=CCNC(=O)n1nc(NC)n(C)c1=O

>  <melting point>
136 to 137 °C

$$$$
>  <Compound>
COc1ccc(C(=O)O)c(COc2ccc(CC(=O)O)cc2)c1

>  <melting point>
198 to 200 °C

$$$$
>  <Compound>
COc1ccc(CN(C)CCCSc2ccc(NC(=O)c3cccc4c(=O)c5cccc(C)c5[nH]c34)cc2)cc1OC

>  <melting point>
158 °C

$$$$
>  <Compound>
Cc1n[nH]c2cc(-c3nn(Cc4oc5ccccc5c(=O)c4-c4cccc(F)c4)c4ncnc(N)c34)ccc12

>  <melting point>
246 to 248 °C

$$$$
>  <Compound>
CCCC(=O)C(Cc1ccc(-c2ccccc2-c2nnn[nH]2)cc1)C(=O)OCC (centres undefined)

>  <melting point>
65 °C

$$$$

----------
This listing pairs compounds with measured melting point.

>  <Compound>
COc1cc(CC(N)=O)c(CCc2ccc(O)c(OCc3ccccc3)c2)c(OC)c1OC

>  <melting point>
139 to 141 °C

$$$$
>  <Compound>
O=C1CC[C@@H](CCCO)[C@H](c2ccc(OCc3ccccc3)cc2OCc2ccccc2)C1 (relative stereo)

>  <melting point>
110 to 117 °C

$$$$
>  <Compound>
CC1(C)C(=O)Nc2ccc([N+](=O)[O-])cc21

>  <melting point>
192 to 196 °C

$$$$
>  <Compound>
CC1COCc2nc3c(N)nc4ccc(OC(=O)N5CCCC5)cc4c3n21 (centres undefined)

>  <melting point>
218 to 219 °C

$$$$
>  <Compound>
C=C(C)[C@H](C(=O)OC(c1ccccc1)c1ccccc1)N1C(=O)[C@@H]2N=C(c3ccccc3)O[C@@H]21

>  <melting point>
116 to 118 °C

$$$$
>  <Compound>
CN1CCC(Oc2[nH]nc(-c3ccc(Cl)cc3)c2-c2ccncc2)CC1

>  <melting point>
256 to 257 °C

$$$$
>  <Compound>
CCCC[C@H](CN(C=O)OCc1ccccc1)C(=O)N1CCC[C@H]1C(=O)Nc1ccc(F)cn1

>  <melting point>
98 °C

$$$$
>  <Compound>
CCc1c(N)c(C)cc(Cc2cc(C)c(N)c(CC)c2Cl)c1Cl

>  <melting point>
143 to 148 °C

$$$$
>  <Compound>
CCOC(=O)C1=C(COCCNc2nccc(=O)[nH]2)NC(C)=C(C(=O)OC)C1c1ccccc1Cl (centres undefined)

>  <melting point>
148 to 150 °C

$$$$
>  <Compound>
CCc1nc2c(cnn2CC)c(NC2CCOCC2)c1CNC(=O)c1cc(C)cc(C(=O)O)c1

>  <melting point>
236 to 239 °C

$$$$
>  <Compound>
Cn1c(=O)c(C#N)c(N2CCN(C(=O)c3cccs3)CC2)c2cc(Cl)ccc21

>  <melting point>
262 °C

$$$$
>  <Compound>
O=C1CCC(N2C(=O)c3cccc(OCc4ccc(CN5CCN(c6ccc(F)cc6)CC5)cc4)c3C2=O)C(=O)N1 (centres undefined)

>  <melting point>
135 to 137 °C

$$$$
>  <Compound>
COc1nc2cc(Cl)c(Cl)cc2nc1N1CCN(C)CC1

>  <melting point>
92.6 to 99 °C

$$$$
>  <Compound>
NS(=O)(=O)c1ccc(-c2oc3c(Cl)ccc(O)c3c(=O)c2-c2ccc(F)cc2)cc1

>  <melting point>
251 to 252 °C

$$$$
>  <Compound>
CCOCCOc1ccc(-c2ccc3c(c2)C=C(C(=O)O)CCN3S(C)(=O)=O)cc1

>  <melting point>
222 to 225 °C

$$$$
>  <Compound>
c1coc(P(CCP(c2ccco2)c2ccco2)c2ccco2)c1

>  <melting point>
94 to 96 °C

$$$$
>  <Compound>
O=S(=O)(CCCl)c1ccc(O)cc1

>  <melting point>
72.5 to 73.5 °C

$$$$
>  <Compound>
CC/C=C\Cn1c(=O)sc2c(N)ncnc21

>  <melting point>
134 to 135 °C

$$$$
>  <Compound>
C1COCCN2CCSCCSCCN(CCO1)CCSCCSCC2

>  <melting point>
86 °C

$$$$
